# Test system: GammaA3
# Procedure Summary: Cell cycle analysis by flow cytometry
# Format: cell-based, mouse
# Assay Setup: IC50 concentration, 96 h
compounds and their reported Cells in S phase
Readout: Cells in S phase

compound="Fc1ccccc1CNc1ncnc2c1cnn2CC(Cl)c1ccc(Br)cc1 (stereo not shown)" assay_target=GammaA3 readout_value=28.1%
compound="Cc1nc(Nc2cccc(Cl)c2)c2cnn(CC(Cl)c3ccccc3)c2n1 (stereo not shown)" assay_target=GammaA3 readout_value=11.7%
compound="CSc1nc(NCc2ccccc2)c2cnn(CC(Cl)c3ccccc3)c2n1 (stereo not shown)" assay_target=GammaA3 readout_value=14.6%
compound="CCCCNc1nc(SCC)nc2c1cnn2CC(Cl)c1ccccc1 (stereo not shown)" assay_target=GammaA3 readout_value=30.8%
compound="CSc1nc(NCc2ccccc2)c2cnn(CC(Cl)c3ccc(Cl)cc3)c2n1 (stereo not shown)" assay_target=GammaA3 readout_value=2.8%
compound="CSc1nc(Nc2cccc(F)c2)c2cnn(CC(Cl)c3ccc(F)cc3)c2n1 (stereo not shown)" assay_target=GammaA3 readout_value=7.2%
compound="CSc1nc(NCc2ccccc2)c2cnn(CC(Cl)c3ccc(F)cc3)c2n1 (stereo not shown)" assay_target=GammaA3 readout_value=14.6%
compound="Fc1ccc(C(Cl)Cn2ncc3c(Nc4cccc(Cl)c4)ncnc32)cc1 (stereo not shown)" assay_target=GammaA3 readout_value=21.2%
compound=CSc1nc(NCCc2ccccc2)c2cnn(C=Cc3ccccc3)c2n1 assay_target=GammaA3 readout_value=31.3%
compound="Clc1cccc(Nc2nc(SC3CCCC3)nc3c2cnn3CC(Cl)c2ccccc2)c1 (stereo not shown)" assay_target=GammaA3 readout_value=10%

----------
# System: GammaA3
# Procedure Summary: Cell cycle analysis by flow cytometry
# Type: cell-based, mouse
# Assay Setup: IC50 concentration, 96 h
compounds and their reported Cells in S phase
Readout: Cells in S phase (%)

compound="CSc1nc(NCCc2ccccc2)c2cnn(CC(Cl)c3ccc(F)cc3)c2n1 (stereo not shown) [Si66]" readout="Cells in S phase" unit_descriptor=% readout_value=23.1
compound="CSc1nc(NCCc2ccc(Cl)cc2)c2cnn(CC(Cl)c3ccccc3)c2n1 (stereo not shown) [Si57]" readout="Cells in S phase" unit_descriptor=% readout_value=22.4
compound="Cc1nc(Nc2cccc(F)c2)c2cnn(CC(Cl)c3ccccc3)c2n1 (stereo not shown) [Si166]" readout="Cells in S phase" unit_descriptor=% readout_value=11.5
compound="CC(C)Sc1nc(NCCc2ccccc2)c2cnn(CC(Cl)c3ccccc3)c2n1 (stereo not shown) [Si142]" readout="Cells in S phase" unit_descriptor=% readout_value=17.5

----------
# Tested on: A2C12
# Procedure Summary: Cell cycle analysis by flow cytometry
# Assay type: cell-based, mouse
# Assay Setup: IC50 concentration, 96 h
molecules and their reported Cells in G2 phase
Readout: Cells in G2 phase (%)

molecule="CSc1nc(NCCc2ccccc2)c2cnn(CC(Cl)c3ccc(F)cc3)c2n1 (stereo not shown)" unit_descriptor=% readout_value=11.8
molecule="CC(C)Sc1nc(NCCc2ccccc2)c2cnn(CC(Cl)c3ccccc3)c2n1 (stereo not shown)" unit_descriptor=% readout_value=13.4
molecule="CSc1nc(NCc2ccccc2)c2cnn(CC(Br)c3ccccc3)c2n1 (stereo not shown)" unit_descriptor=% readout_value=10.7
molecule="CSc1nc(NCCc2ccc(Cl)cc2)c2cnn(CC(Cl)c3ccccc3)c2n1 (stereo not shown)" unit_descriptor=% readout_value=12.2

The origin of these recorded values is paper PMC2994747.
